Values were extracted from PubChem BioAssay (NCI).

Field: GI50. Provide a value for each of the compounds that follow.
Test system: OVCAR-3 ovarian
Assay: NCI tumour cell line growth inhibition, 48 h

The following compounds have reported results that may help.
>>> result("c1ccc(CNc2nc(Nc3ccc(-c4nc5ccccc5[nH]4)cc3)c3cn[nH]c3n2)cc1")
"1.61 µM"
>>> result("O=C1/C(=C\\c2ccccc2)CN(C(=O)c2ccccc2F)C/C1=C\\c1ccccc1")
"2.36 µM"

Pending compound:
## Task GI50 for COc1cc2c(cc1OCCCN1CCN(CCCOc3cc4c(cc3OC)C(=O)C3CCC[C@H]3C=N4)CC1)N=C[C@@H]1CCCC1C2=O (stereo partly drawn) ?
## Result 8.17 µM

* * *

System: A498 renal
Assay: NCI tumour cell line growth inhibition, 48 h
readout.type: TGI (µM)
Give bare numbers, in µM.

These solved cases illustrate the format of a correct answer.
>>> quantitative_readout("CC1=C(C(=O)Nc2cc(F)c(F)cc2F)C(c2cccc([N+](=O)[O-])c2)C(C(=O)Nc2ccccc2C(F)(F)F)=C(C)N1 (stereo not given)")
45
>>> quantitative_readout("CCOC(=O)c1c(C)n(-c2ccc(C)cc2)c2c1cc(O)c1[nH]c3c(c12)CCCC3")
56.2
>>> quantitative_readout("O=C(c1no[n+]([O-])c1C(=O)c1csc2ccccc12)c1csc2ccccc12")
29.3
>>> quantitative_readout("c1ccc(NC2(c3nnnn3C3CCCCC3)CCNCC2)cc1")
51
>>> quantitative_readout("CCCN=C1S/C(=C/c2ccc(OC)c(OC)c2)C(=O)N1c1ccccc1")
58.2

// input: 3 compounds below; output: TGI for each
1. COC(=O)c1c(OC(C)=O)ccc2c1c1c(n2Cc2ccccc2)C(=O)c2ccccc2C1=O
2. CC(C)c1cc(C(C)C)c(P2(=O)CC3C(Cl)(Cl)C3(C)C2)c(C(C)C)c1 (stereo not given)
3. NC(N)=NCCCS(=O)(=O)Nc1ccc(Nc2c3ccccc3nc3cc([N+](=O)[O-])ccc23)cc1

## Result
43.6
26.9
65.8

Please state TGI for every compound in the list that follows.
1. CCOC(=O)C1=C(O)CSC1=Nc1ccc(N=C2SCC(O)=C2C(=O)OCC)cc1
2. COC(=O)C1CCCCCCCCCCC12SCCCS2 (stereo not given)
3. C/C=C(\C)C(=O)O[C@@H]1C=CC(=O)O[C@H]1COC(=O)[C@H](C)O
4. CC(C)=CCC/C(C)=C/CC/C(C)=C/C(O)c1ccccc1 (stereo not given)
5. COC(=O)[C@H]1[C@H](OC(=O)[C@@H](OC)c2ccccc2)ON2CC[C@@H](OC(=O)c3ccccc3)[C@H]12

## Result
50.5
49.7
30.4
34.2
23.1

Take each entry in turn and give its TGI.
1. C[C@@H](Oc1cc(-n2cnc3ccc(OCC4CCN(C)CC4)cc32)sc1C(N)=O)c1ccccc1C(F)(F)F
2. CCOc1ccc(NC(=O)/C(=C/c2ccccc2)C(C)=O)cc1
3. C/C(=N\NC(=S)Nc1ccccc1)c1ccccn1
4. COc1cc2c(cc1OCCCN1CCN(CCCOc3cc4c(cc3OC)C(=O)C3CCC[C@H]3C=N4)CC1)N=C[C@@H]1CCCC1C2=O (stereo not given in full)
5. c1ccc2c(-c3ccnc(-c4c[nH]c5ccccc45)n3)c[nH]c2c1
6. Cn1cc(-c2csc(-c3cn(C)c4ncccc34)n2)c2ccccc21

## Result
[1.56, 35.3, 1.64, 7.49, 5.33, 8.65]
